Target: Neu5Ac(a2-6)Gal(b1-4)Glc
Assay: glycan array binding signal (z-score within array); higher = stronger binding
Conditions: glycan notation: IUPAC condensed, linker removed
Shown is part of a subset that was picked to be rich in the strongest signals.
Record form. Attribute: glycan array binding signal (z-score). Fill in for each entry.
Give bare numbers.

binder="Cohesin-marm-DC-ASGPR-CRD (protein) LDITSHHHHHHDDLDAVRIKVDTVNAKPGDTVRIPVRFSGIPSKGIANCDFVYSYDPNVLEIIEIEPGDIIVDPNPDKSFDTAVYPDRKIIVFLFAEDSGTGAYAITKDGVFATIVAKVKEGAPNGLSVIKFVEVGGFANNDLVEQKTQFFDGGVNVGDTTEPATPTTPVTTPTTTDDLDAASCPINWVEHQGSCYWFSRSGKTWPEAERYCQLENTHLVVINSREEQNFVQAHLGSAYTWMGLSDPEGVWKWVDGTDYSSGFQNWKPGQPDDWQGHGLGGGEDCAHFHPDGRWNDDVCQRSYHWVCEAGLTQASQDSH" readout_kind="glycan array binding signal (z-score)" value_observed=-0.421

[Q] Name the reported glycan array binding signal (z-score) value associated with the binder MAL-II (Maackia amurensis), P93248 (protein) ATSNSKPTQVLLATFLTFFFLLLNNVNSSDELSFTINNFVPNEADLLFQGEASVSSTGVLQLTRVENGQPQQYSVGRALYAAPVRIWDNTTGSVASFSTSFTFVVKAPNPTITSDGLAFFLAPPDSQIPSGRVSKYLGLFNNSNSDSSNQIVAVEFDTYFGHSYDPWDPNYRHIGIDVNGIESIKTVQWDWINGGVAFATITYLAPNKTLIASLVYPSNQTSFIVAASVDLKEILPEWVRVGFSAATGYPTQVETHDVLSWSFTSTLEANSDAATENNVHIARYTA
[A] -0.184
